molecular target: human TLR7 (Homo sapiens); experiment: HEK293-Blue-hTLR-7 cells assay (SEAP reporter, R848 stimulation); settings: HEK293-Blue-hTLR7 cells, R848 ligand, 20 hrs incubation
Sequence (Q9NYK1 27-1049): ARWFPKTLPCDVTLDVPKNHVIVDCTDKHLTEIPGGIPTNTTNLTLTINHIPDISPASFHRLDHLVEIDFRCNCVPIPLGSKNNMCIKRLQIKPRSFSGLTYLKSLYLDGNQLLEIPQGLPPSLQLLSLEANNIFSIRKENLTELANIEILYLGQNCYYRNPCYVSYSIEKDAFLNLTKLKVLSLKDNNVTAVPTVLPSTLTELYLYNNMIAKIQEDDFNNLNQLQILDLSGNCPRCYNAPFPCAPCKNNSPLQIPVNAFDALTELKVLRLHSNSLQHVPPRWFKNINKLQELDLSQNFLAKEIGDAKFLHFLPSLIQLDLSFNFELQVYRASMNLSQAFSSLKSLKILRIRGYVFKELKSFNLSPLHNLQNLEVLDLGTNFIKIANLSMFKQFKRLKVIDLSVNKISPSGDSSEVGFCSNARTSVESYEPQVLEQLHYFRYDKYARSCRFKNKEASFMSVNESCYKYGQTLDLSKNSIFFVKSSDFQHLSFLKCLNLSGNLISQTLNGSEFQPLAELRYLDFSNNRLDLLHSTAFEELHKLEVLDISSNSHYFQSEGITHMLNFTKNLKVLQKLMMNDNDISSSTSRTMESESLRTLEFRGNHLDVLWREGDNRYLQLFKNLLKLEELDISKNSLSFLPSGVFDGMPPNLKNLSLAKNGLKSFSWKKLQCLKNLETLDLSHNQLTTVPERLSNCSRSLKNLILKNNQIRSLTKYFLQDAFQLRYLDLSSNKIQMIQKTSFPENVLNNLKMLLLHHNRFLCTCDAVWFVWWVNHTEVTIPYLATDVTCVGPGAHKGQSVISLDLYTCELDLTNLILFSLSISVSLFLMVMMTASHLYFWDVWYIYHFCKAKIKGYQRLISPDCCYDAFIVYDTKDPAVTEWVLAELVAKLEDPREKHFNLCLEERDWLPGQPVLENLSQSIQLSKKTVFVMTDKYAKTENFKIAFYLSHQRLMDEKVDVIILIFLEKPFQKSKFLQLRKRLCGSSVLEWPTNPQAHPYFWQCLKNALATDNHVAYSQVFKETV
Below is a list of entries, each paired with its recorded log10(IC50) value.
reported.endpoint: log10(IC50) (log10 of the value in nM)

compound	log10(IC50)
C[C@@H]1CN(c2ccc(C#N)n3nccc23)C[C@H](CN2C[C@H]3CC[C@@H](N(C)C)[C@H]3C2)O1 (racemic)	2.83
C[C@@H]1CN(c2ccc(C#N)n3nccc23)C[C@H](CN2CCC(CCN)CC2)O1	2.60
C[C@@H]1CN(c2ccc(C#N)n3nccc23)C[C@H](CN2CC3CCC2CN3)O1 (some centres unmarked)	1.66
C[C@@H]1CN(c2ccc(C#N)n3nccc23)C[C@H](CN2CC3CCNCC32)O1 (some centres unmarked)	2.43
C[C@@H]1CN(c2ccc(C#N)n3nccc23)C[C@H](CN2CC[C@H](N)[C@H](C)C2)O1	1.95
C[C@@H]1CN(c2ccc(C#N)n3nccc23)C[C@H](CN2CCCC3(CCNCC3)C2)O1	2.61
C[C@@H]1CN(c2ccc(C#N)n3nccc23)C[C@H](CN2C3COCC2CC(N)C3)O1 (some centres unmarked)	1.95
C[C@@H]1CN(c2ccc(C#N)n3nccc23)C[C@H](CN2CCNCC2)O1	1.73

====

target: human TLR7 (Homo sapiens); experiment: HEK293-Blue-hTLR-7 cells assay (SEAP reporter, R848 stimulation); details: HEK293-Blue-hTLR7 cells, R848 ligand, 20 hrs incubation
pIC50: −log10 of the molar value.
Below is a list of entries, each paired with its recorded pIC50 value.

compound	pIC50
C[C@@H]1CN(c2ccc(C#N)n3nccc23)C[C@H](CN2CCC3(CCNCC3)CC2)O1	6.62
C[C@@H]1CN(c2ccc(C#N)n3nccc23)C[C@H](CN2C3CCCC2CC(N)C3)O1 (some centres unmarked) [Example 66]	6.31
C[C@@H]1CN(c2ccc(C#N)n3nccc23)C[C@H](CN2CCCC3NCCCC32)O1 (some centres unmarked)	6.60
C[C@@H]1CN(c2ccc(C#N)n3nccc23)C[C@H](CN2CC[C@@H]3CNCC32)O1 (some centres unmarked)	6.15
C[C@@H]1CN(c2ccc(C#N)n3nccc23)C[C@H](CN2CC3CNCCC32)O1 (some centres unmarked)	7.04
C[C@@H]1CN(c2ccc(C#N)n3nccc23)C[C@H](CN2C3CNCC2COC3)O1	7.14
C[C@@H]1CN(c2ccc(C#N)n3nccc23)C[C@H](CN2CCN(C(=O)CN)CC2)O1	6.34
C[C@@H]1CN(c2ccc(C#N)n3nccc23)C[C@H](CN2CC3(CCNC3)CC2=O)O1 (some centres unmarked)	6.19
C[C@@H]1CN(c2ccc(C#N)n3nccc23)C[C@H](CN2CC3CCC(C2)N3)O1	7.28
C[C@@H]1CN(c2ccc(C#N)n3nccc23)C[C@H](CN2CCC3(CCCN3)CC2)O1	6.64
CC1CC(N)CCN1C[C@H]1CN(c2ccc(C#N)n3nccc23)C[C@@H](C)O1 (some centres unmarked)	6.41
C[C@@H]1CN(c2ccc(C#N)n3nccc23)C[C@H](CN2CC3(CCCNCC3)C2)O1	6.22
C[C@@H]1CN(c2ccc(C#N)n3nccc23)C[C@H](CN2CCCC3(CCNC3)C2)O1 (some centres unmarked)	6.62
C[C@@H]1CN(c2ccc(C#N)n3nccc23)C[C@H](CN2CCC3(CCN3)CC2)O1	6.52
C[C@@H]1CN(c2ccc(C#N)n3nccc23)C[C@H](CN2CCN(C3CCNCC3)CC2Cc2ccccc2)O1 (some centres unmarked)	6.80
C[C@@H]1CN(c2ccc(C#N)n3nccc23)C[C@H](CN2CCC3(CN(C)CCO3)C2)O1 (some centres unmarked)	6.04
C[C@@H]1CN(c2ccc(C#N)n3nccc23)C[C@H](CN2CCC[C@@H]3NCCC32)O1 (some centres unmarked)	6.57
C[C@@H]1CN(c2ccc(C#N)n3ncc(F)c23)C[C@H](CN2CCCC3(CCNCC3)C2)O1	6.55
C[C@@H]1CN(c2ccc(C#N)n3nccc23)C[C@H](CN2CC3CCC(C2)C3N)O1 (some centres unmarked)	7.42
C[C@@H]1CN(c2ccc(C#N)n3nccc23)C[C@H](CN2CCC3(CCNC3)CC2)O1	6.89
C[C@@H]1CN(c2ccc(C#N)n3nccc23)C[C@H](CN2CCNC3(CC3)C2)O1	7.02
C[C@@H]1CN(c2ccc(C#N)n3nccc23)C[C@H](CN2CCC(N3CCCC3)CC2)O1	6.72
CC1CNCCN1C[C@H]1CN(c2ccc(C#N)n3nccc23)C[C@@H](C)O1 (single isomer, unassigned) [Example 50B]	6.85
C[C@@H]1CN(c2ccc(C#N)n3nccc23)C[C@H](CN2CCC(N)(c3ccccc3)CC2)O1	6.82
C[C@@H]1CN(c2ccc(C#N)n3nccc23)C[C@H](CN2CC3CCCNC3C2)O1 (some centres unmarked)	6.60
C[C@@H]1CN(c2ccc(C#N)n3nccc23)C[C@H](CN2CCC(N3CCN(C)CC3)CC2)O1	7.02
C[C@@H]1CN(c2ccc(C#N)n3nccc23)C[C@H](CN2C3CCC2CNC3)O1	7.23
C[C@@H]1CN(c2ccc(C#N)n3nccc23)C[C@H](CN2CCCC3CNCC32)O1 (some centres unmarked)	6.34
C[C@@H]1CN(c2ccc(C#N)n3nccc23)C[C@H](CN2CCC3(CCCCN3)CC2)O1	6.74
C[C@@H]1CN(c2ccc(C#N)n3nccc23)C[C@H](CNC2CCN(C)CC2)O1	6.59
C[C@@H]1CN(c2ccc(C#N)n3nccc23)C[C@H](CN2CCC3(CCNC3)C2)O1 (some centres unmarked)	6.70
C[C@@H]1CN(c2ccc(C#N)n3nccc23)C[C@H](CN2CCCC3(CNC3)C2)O1	6.34

====

target: human TLR8 (Homo sapiens); assay: HEK293-Blue-hTLR-8 cells assay (SEAP reporter, R848 stimulation); details: HEK293-Blue-hTLR8 cells, R848 ligand, 20 hrs incubation
Sequence (Q9NR97 27-1041): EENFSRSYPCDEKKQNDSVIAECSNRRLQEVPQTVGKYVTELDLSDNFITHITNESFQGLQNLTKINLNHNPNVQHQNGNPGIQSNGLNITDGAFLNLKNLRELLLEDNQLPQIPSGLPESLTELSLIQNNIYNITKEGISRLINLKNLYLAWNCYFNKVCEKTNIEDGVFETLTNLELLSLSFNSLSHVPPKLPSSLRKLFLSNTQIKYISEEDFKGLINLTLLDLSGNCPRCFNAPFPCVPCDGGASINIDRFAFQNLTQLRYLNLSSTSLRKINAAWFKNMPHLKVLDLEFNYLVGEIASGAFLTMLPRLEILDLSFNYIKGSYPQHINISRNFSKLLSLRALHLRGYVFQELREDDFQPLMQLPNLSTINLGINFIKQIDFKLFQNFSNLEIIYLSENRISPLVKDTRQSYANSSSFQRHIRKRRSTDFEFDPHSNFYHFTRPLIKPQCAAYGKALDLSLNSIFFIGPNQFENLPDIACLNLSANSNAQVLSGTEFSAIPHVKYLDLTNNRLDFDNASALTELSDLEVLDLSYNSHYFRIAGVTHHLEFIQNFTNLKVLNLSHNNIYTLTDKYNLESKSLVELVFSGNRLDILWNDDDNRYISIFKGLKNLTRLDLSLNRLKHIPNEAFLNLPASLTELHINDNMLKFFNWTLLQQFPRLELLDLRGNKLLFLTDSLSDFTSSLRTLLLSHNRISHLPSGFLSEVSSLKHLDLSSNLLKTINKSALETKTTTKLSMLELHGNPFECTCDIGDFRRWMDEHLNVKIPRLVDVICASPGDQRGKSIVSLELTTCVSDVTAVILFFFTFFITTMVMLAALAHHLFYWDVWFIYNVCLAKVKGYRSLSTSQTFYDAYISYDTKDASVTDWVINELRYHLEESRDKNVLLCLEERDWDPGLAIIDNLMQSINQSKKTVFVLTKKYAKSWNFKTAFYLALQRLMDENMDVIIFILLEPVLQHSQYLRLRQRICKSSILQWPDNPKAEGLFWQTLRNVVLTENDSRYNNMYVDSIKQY
reported.endpoint: log10(IC50) (log10 of the value in nM)

compound	log10(IC50)
C[C@@H]1CN(c2ccc(C#N)n3nccc23)C[C@H](CN2CCC[C@@H]3NCCC32)O1 (some centres unmarked) [Example 63]	1.64
C[C@@H]1CN(c2ccc(C#N)n3nccc23)C[C@H](CN2CCC(N)C(F)(F)C2)O1 (some centres unmarked) [Example 34]	1.81
C[C@@H]1CN(c2ccc(C#N)n3nccc23)C[C@H](CN2CCCC3(CCNC3)C2)O1 (some centres unmarked) [Example 44]	1.40
C[C@@H]1CN(c2ccc(C#N)n3nccc23)C[C@H](CN2CCCC3(CNC3)C2)O1 [Example 33]	1.73
C[C@@H]1CN(c2ccc(C#N)n3nccc23)C[C@H](CN2CC3CNCC3C2)O1 (some centres unmarked) [Example 22]	1.84
C[C@@H]1CN(c2ccc(C#N)n3nccc23)C[C@H](CN2CCN[C@H](c3ccccc3)C2)O1 [Example 38]	1.57
C[C@@H]1CN(c2ccc(C#N)n3nccc23)C[C@H](CN2CCC(CCN)CC2)O1 [Example 13]	2.87
C[C@@H]1CN(c2ccc(C#N)n3nccc23)C[C@H](CN2CCN(C(=O)CN)CC2)O1 [Example 14]	2.58

====

biological target: human TLR9 (Homo sapiens); experiment: HEK293-Blue-hTLR-9 cells assay (SEAP reporter, ODN2006 stimulation); conditions: HEK293-Blue-hTLR9 cells, ODN2006 ligand, 20 hrs incubation
Sequence (Q9NR96 26-1032): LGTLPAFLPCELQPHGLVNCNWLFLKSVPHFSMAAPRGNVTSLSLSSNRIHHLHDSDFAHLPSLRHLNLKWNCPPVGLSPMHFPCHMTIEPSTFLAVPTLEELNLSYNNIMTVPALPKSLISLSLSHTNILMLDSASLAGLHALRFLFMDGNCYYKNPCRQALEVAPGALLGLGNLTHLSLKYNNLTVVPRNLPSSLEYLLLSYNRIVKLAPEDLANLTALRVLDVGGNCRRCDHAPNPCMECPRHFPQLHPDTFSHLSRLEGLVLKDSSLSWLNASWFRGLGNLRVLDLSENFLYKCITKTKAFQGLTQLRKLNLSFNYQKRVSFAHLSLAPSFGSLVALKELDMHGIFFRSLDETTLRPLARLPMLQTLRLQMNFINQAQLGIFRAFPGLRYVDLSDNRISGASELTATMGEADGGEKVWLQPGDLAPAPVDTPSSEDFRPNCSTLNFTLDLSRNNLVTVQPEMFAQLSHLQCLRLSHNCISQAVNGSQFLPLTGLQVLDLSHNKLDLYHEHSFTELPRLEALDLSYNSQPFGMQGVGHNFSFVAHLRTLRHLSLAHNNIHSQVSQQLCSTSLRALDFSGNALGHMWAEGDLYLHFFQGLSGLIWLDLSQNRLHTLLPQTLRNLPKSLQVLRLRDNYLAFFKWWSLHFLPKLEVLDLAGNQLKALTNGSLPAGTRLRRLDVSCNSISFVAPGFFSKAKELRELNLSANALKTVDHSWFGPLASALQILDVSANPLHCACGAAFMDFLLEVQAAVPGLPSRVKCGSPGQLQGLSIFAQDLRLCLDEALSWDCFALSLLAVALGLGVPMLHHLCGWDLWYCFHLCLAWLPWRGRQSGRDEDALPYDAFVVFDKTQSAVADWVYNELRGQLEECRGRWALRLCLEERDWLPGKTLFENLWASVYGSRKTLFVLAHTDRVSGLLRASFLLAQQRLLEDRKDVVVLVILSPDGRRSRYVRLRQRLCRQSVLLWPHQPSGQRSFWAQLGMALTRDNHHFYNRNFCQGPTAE
Below is a list of entries, each paired with its recorded IC50 value.

molecule	unit.string	IC50
C[C@@H]1CN(c2ccc(C#N)n3nccc23)C[C@H](CN2CCC(N)(c3ccccc3)CC2)O1	nM	220
C[C@@H]1CN(c2ccc(C#N)n3nccc23)C[C@H](CN2CCC(N3CCNCC3)CC2)O1	nM	96
C[C@@H]1CN(c2ccc(C#N)n3nccc23)C[C@H](CN2CC3CCC(C2)C3N)O1 (stereo partly shown)	nM	520
CC1CNCCN1C[C@H]1CN(c2ccc(C#N)n3nccc23)C[C@@H](C)O1 (single isomer, unassigned) [Example 50B]	nM	24000
C[C@@H]1CN(c2ccc(C#N)n3nccc23)C[C@H](CN2CCC(N3CCN(C)CC3)CC2)O1	nM	130
C[C@@H]1CN(c2ccc(C#N)n3nccc23)C[C@H](CN2CCC(N3CCCCCC3)CC2)O1	nM	280
C[C@@H]1CN(c2ccc(C#N)n3ncc(F)c23)C[C@H](CN2CCCC3(CCNC3)C2)O1 (stereo partly shown)	nM	110

====

biological target: human TLR8 (Homo sapiens); assay: HEK293-Blue-hTLR-8 cells assay (SEAP reporter, R848 stimulation); conditions: HEK293-Blue-hTLR8 cells, R848 ligand, 20 hrs incubation

molecule	IC50
C[C@@H]1CN(c2ccc(C#N)n3nccc23)C[C@H](CN2C3COCC2CC(N)C3)O1 (some centres unmarked)	58 nM
C[C@@H]1CN(c2ccc(C#N)n3nccc23)C[C@H](CN2C[C@H]3CC[C@@H](N(C)C)[C@H]3C2)O1 (racemic)	600 nM
CC1CC(N)CCN1C[C@H]1CN(c2ccc(C#N)n3nccc23)C[C@@H](C)O1 (some centres unmarked)	40 nM
C[C@@H]1CN(c2ccc(C#N)n3nccc23)C[C@H](CN2CCCC3(CCNCC3)C2)O1	91 nM
C[C@@H]1CN(c2ccc(C#N)n3nccc23)C[C@H](CN2CC3CCNCC32)O1 (some centres unmarked)	480 nM
C[C@@H]1CN(c2ccc(C#N)n3nccc23)C[C@H](CN2CCC(N3CCNCC3)CC2)O1	180 nM
C[C@@H]1CN(c2ccc(C#N)n3nccc23)C[C@H](CN2CCCC3NCCCC32)O1 (some centres unmarked)	120 nM
C[C@@H]1CN(c2ccc(C#N)n3nccc23)C[C@H](CN2C3CCCC2CC(N)C3)O1 (some centres unmarked) [Example 66]	140 nM
